Target: Aryl hydrocarbon receptor (Cavia porcellus)
Experiment: enhancers of AHR:DRE complex formation, late-stage follow-up, mechanism study for AHR activator project, cell lysate, guinea pig liver cytosol, radiometric EMSA (AID 602172)
Conditions: radiometric gel
Consider the following compounds; for each one, report its EC50.

Q: State recorded EC50 with Aryl hydrocarbon receptor (Cavia porcellus), entry `Cc1ccc(-c2cc(-c3cccs3)[nH]n2)c(O)c1` , no comment.
A: 500 nM

Q: State EC50 on Aryl hydrocarbon receptor (Cavia porcellus). Entry: `Cc1nc(N)nc(Nc2ccc(Cl)cc2)c1Br`
A: 1000 nM

----------
Tested on: Aryl hydrocarbon receptor (Cavia porcellus)
Test: enhancers of AHR:DRE complex formation, late-stage follow-up, mechanism study for AHR activator project, cell lysate, guinea pig liver cytosol, radiometric EMSA (AID 602172)
Settings: radiometric gel, at 10 µM, active compounds read high
Activity calls are given as the source filed them.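 Rule for the calls: active = DNA binding activation reaching at least 20% of the dioxin reference response; inactive = the rest.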
assay.endpoint: DNA binding activation (% of TCDD)

Q: Indicate its recorded DNA binding activation (% of TCDD); the compound in question is `O=C(Nc1cccc(Cl)c1)c1cccnn1`
A: 21.6%

Q: State its DNA binding activation (% of TCDD): `O=C1c2ccccc2-c2nc3ccccc3nc21`
A: 59.4%

Q: Indicate the recorded DNA binding activation (% of TCDD) value for this compound: `CCOc1ccc(-c2cc(C)n3nc(C(N)=O)cc3n2)cc1`
A: 8.2% (inactive)

Q: Using the record for `COc1ccccc1C(=O)Nc1ccc(N2CCCCC2)cc1` , state its measured DNA binding activation (% of TCDD).
A: 42%

Q: Note DNA binding activation (% of TCDD) for the compound shown: `COC(=O)c1ccccc1NC(=O)Cn1ccnc1`
A: 5.2% (inactive)

Q: Give the reported DNA binding activation (% of TCDD) for this compound. `CCOc1ccccc1NC(=O)c1ccc2nccnc2c1`
A: 20% (inactive)

Q: Name the recorded DNA binding activation (% of TCDD) of the item `CCC(=O)Nc1cc(OC)c(NC(=O)c2ccccc2)cc1OC` in your answer.
A: 7% (inactive)

Q: Give DNA binding activation (% of TCDD) for the following compound: `CC(=O)c1ccc(NC(=O)c2cc(Cl)nc3ccccc23)cc1`
A: 5.3% (inactive)

Q: Name the recorded DNA binding activation (% of TCDD) of the compound listed here: `Cc1ccccc1-c1nc(-c2cccnc2)no1`
A: 40.4%

Q: Provide one value: measured DNA binding activation (% of TCDD) of `COc1ccccc1NC(=O)Nc1cccnc1`
A: 10% (inactive)

Q: Read off the recorded DNA binding activation (% of TCDD) for `CCCC(=O)Nc1nn(C)c2nc3cc(C)ccc3cc12`
A: 12.1% (inactive)

Q: Please report DNA binding activation (% of TCDD) for the following compound: `COc1cc2c(cc1NC(=O)Nc1ccc(C)cc1)oc1ccccc12`
A: 17% (inactive)

Q: Respond only with DNA binding activation (% of TCDD) recorded for `Cc1nnc(N2C(=O)c3cccc4c([N+](=O)[O-])ccc(c34)C2=O)s1`
A: 3.7% (inactive)

Q: Look up DNA binding activation (% of TCDD) of `COc1ccc(Cl)cc1C(=O)Nc1ccc(N(C)C(C)=O)cc1` and report it.
A: 20.2%

Q: Return DNA binding activation (% of TCDD) for the following compound: `CCOC(=O)Cc1cc(-c2ccc(O)cc2)nc2ccc3ccccc3c12`
A: 15.3% (inactive)

Q: Annotate the compound `Cc1c(-c2ccn[nH]2)cc(NC(=O)c2ccc(Cl)cc2)c(=O)n1N` with its measured DNA binding activation (% of TCDD).
A: 4.4% (inactive)

Q: Give recorded DNA binding activation (% of TCDD). `Cn1c(C(=O)N2CCC(C(N)=O)CC2)cc2cc(Cl)ccc21`
A: 27.8%

Q: Answer with the recorded DNA binding activation (% of TCDD) for the compound listed here: `O=C(CN1CCOCC1)Nc1nc2ccc([N+](=O)[O-])cc2s1`
A: 3.2% (inactive)

Q: Identify the reported DNA binding activation (% of TCDD) for the following entry. `COc1cc2ccccc2cc1C(=O)Nc1ccc(C)cc1`
A: 67.8%

Q: Using known records, supply DNA binding activation (% of TCDD) for `COc1ccccc1NC(=O)c1ccc2c(c1)nnn2C`
A: 15% (inactive)

Q: Please give the documented DNA binding activation (% of TCDD) of `Cn1c(N)c(C(=O)Nc2ccccc2F)sc1=S`
A: 37%

Q: Answer with the recorded DNA binding activation (% of TCDD) for the compound listed here: `CN1CCN(CCCNC(=O)c2cc3c(-c4ccc(Cl)cc4)nn(C)c3s2)CC1`
A: 5.4% (inactive)

Q: Note down DNA binding activation (% of TCDD) recorded for `Cc1cc(Nc2ccc(Br)cc2)n2nc(C)nc2n1`
A: 8.6% (inactive)

Q: Could you please provide reported DNA binding activation (% of TCDD) for `COc1ccccc1NC(=O)c1ccc(C(=O)Nc2ccccc2OC)nc1` ? Thanks!
A: 6.4% (inactive)

Q: Determine from records and report DNA binding activation (% of TCDD) for `Cc1ccc(Nc2ncccc2C(N)=O)cc1`
A: 17.6% (inactive)

Q: Please look at this compound and report its DNA binding activation (% of TCDD): `COc1ccc(NC(=O)c2cccc3c(Br)cccc23)cc1`
A: 18% (inactive)

Q: Item `CN(C)c1nc(N)nc(-c2nc3ccccc3s2)n1` : provide DNA binding activation (% of TCDD)
A: 58.6%

Q: Give a short answer stating reported DNA binding activation (% of TCDD) for `O=C(Nc1ccon1)c1cnc2sccn2c1=O` .
A: 21%

Q: Consider the compound `CCOc1ccc(NC(=O)c2cc3ccccc3cc2OC)cc1` and give its recorded DNA binding activation (% of TCDD).
A: 46.8%

Q: For the compound `COc1ccc(C(=O)Nc2cc(OC)c(NC(=O)c3ccco3)cc2OC)cc1` , give its measured DNA binding activation (% of TCDD) value.
A: 10% (inactive)

Q: Consider the compound `Cc1csc(SCC(=O)Nc2ccc(Cl)cn2)n1` and give its recorded DNA binding activation (% of TCDD).
A: 7.8% (inactive)
